Provenance of the data: the supplement of paper PMC9112550

Test system: Escherichia coli TOP10
experiment notes: shrunken log2 fold change of peptide-encoding DNA abundance (4.5 h post-induction vs induction); higher = less antimicrobial activity (less host growth inhibition)
assay setup: time post-induction: 4.5 h; library: site-saturation at positions 5, 18, 19, 20
endpoint name: shrunken log2 fold change
Keep the answer to the number alone.

RRIRERPPRLPRPRPRPRGHPRP: 0.0666

### Prompt Check the records and state shrunken log2 fold change for RRIRPRPPRLPRPRPRPPYYPRP
### Response -0.492

### Prompt Quote shrunken log2 fold change reported for RRIRLRPPRLPRPRPRPVFTPRP please.
### Response -0.135

### Prompt Give the reported shrunken log2 fold change for this sequence. RRIRRRPPRLPRPRPRPSGHPRP
### Response 0.161

---

Test system: Escherichia coli TOP10
experiment notes: shrunken log2 fold change of peptide-encoding DNA abundance (4.5 h post-induction vs induction); higher = less antimicrobial activity (less host growth inhibition)
assay setup: time post-induction: 4.5 h; library: site-saturation at positions 5, 18, 19, 20
Entries and their shrunken log2 fold change values follow.

RRIRTRPPRLPRPRPRPPHMPRP: -0.101
RRIRTRPPRLPRPRPRPGNAPRP: -0.0554
RRIRPRPPRLPRPRPRPEFTPRP: 0.26
RRIRLRPPRLPRPRPRPDKCPRP: -0.0114
RRIRIRPPRLPRPRPRPFCQPRP: -0.412
RRIRVRPPRLPRPRPRPMWCPRP: -0.139

### Prompt Specify the recorded shrunken log2 fold change for RRIRNRPPRLPRPRPRPNSIPRP , system: Escherichia coli TOP10.
### Response -0.728

### Prompt Answer briefly: shrunken log2 fold change recorded on Escherichia coli TOP10 for RRIRPRPPRLPRPRPRPRVNPRP
### Response -0.194

### Prompt Param request: shrunken log2 fold change | system Escherichia coli TOP10 | item RRIRYRPPRLPRPRPRPQPEPRP
### Response 0.239

### Prompt Return reported shrunken log2 fold change for target or system Escherichia coli TOP10, item RRIRFRPPRLPRPRPRPSMEPRP .
### Response -0.202

### Prompt For Escherichia coli TOP10, give shrunken log2 fold change of the listed sequence: RRIRLRPPRLPRPRPRPSKYPRP
### Response -0.578

### Prompt Quote shrunken log2 fold change with test system Escherichia coli TOP10 for RRIRVRPPRLPRPRPRPWDDPRP
### Response -0.27

### Prompt Look up Escherichia coli TOP10 data: shrunken log2 fold change of RRIRGRPPRLPRPRPRPPERPRP , then report it.
### Response 1.02

### Prompt Provide shrunken log2 fold change, tested on Escherichia coli TOP10, for RRIRERPPRLPRPRPRPHGRPRP .
### Response 0.0279

### Prompt For Escherichia coli TOP10, give the measured shrunken log2 fold change of the entry RRIRGRPPRLPRPRPRPGIFPRP
### Response 0.254

### Prompt Give shrunken log2 fold change; test system Escherichia coli TOP10; sequence RRIRDRPPRLPRPRPRPQFQPRP
### Response -0.145

### Prompt Give shrunken log2 fold change for RRIRLRPPRLPRPRPRPFFPPRP tested on Escherichia coli TOP10.
### Response -0.225

### Prompt Report shrunken log2 fold change under test system Escherichia coli TOP10 for RRIRERPPRLPRPRPRPRHCPRP .
### Response -0.133

### Prompt With Escherichia coli TOP10 as the test system, provide measured shrunken log2 fold change for this sequence: RRIRMRPPRLPRPRPRPKIHPRP
### Response -0.0387

### Prompt Please tell me the measured shrunken log2 fold change for RRIRERPPRLPRPRPRPNNNPRP ; system: Escherichia coli TOP10.
### Response -0.977

### Prompt Return reported shrunken log2 fold change for target or system Escherichia coli TOP10, item RRIRTRPPRLPRPRPRPDLVPRP .
### Response -0.0188

### Prompt Fill in shrunken log2 fold change for RRIRFRPPRLPRPRPRPCWNPRP tested with Escherichia coli TOP10.
### Response 0.151

---

System: Escherichia coli TOP10
experiment notes: shrunken log2 fold change of peptide-encoding DNA abundance (4.5 h post-induction vs induction); higher = less antimicrobial activity (less host growth inhibition)
assay setup: time post-induction: 4.5 h; library: site-saturation at positions 5, 18, 19, 20
Answer -1 if shrunken log2 fold change is under -0.002, and 1 if it is -0.002 or more.

Consider the worked cases shown below.
RRIRVRPPRLPRPRPRPIDWPRP: 1
RRIRRRPPRLPRPRPRPELEPRP: 1
RRIRSRPPRLPRPRPRPMWKPRP: -1
RRIRCRPPRLPRPRPRPIPIPRP: -1
RRIRARPPRLPRPRPRPWDTPRP: 1

### Prompt Decide: shrunken log2 fold change of RRIRVRPPRLPRPRPRPGQTPRP >= -0.002?
### Response 1

### Prompt Threshold query (shrunken log2 fold change >= -0.002) on RRIRERPPRLPRPRPRPWSNPRP
### Response -1

---

Test system: Escherichia coli TOP10
experiment notes: shrunken log2 fold change of peptide-encoding DNA abundance (4.5 h post-induction vs induction); higher = less antimicrobial activity (less host growth inhibition)
assay setup: time post-induction: 4.5 h; library: site-saturation at positions 5, 18, 19, 20
endpoint name: shrunken log2 fold change
// return just the number, without any unit appended

RRIRVRPPRLPRPRPRPARFPRP: 0.16
RRIRRRPPRLPRPRPRPMFMPRP: -0.192
RRIRLRPPRLPRPRPRPDYCPRP: 0.0561
RRIRYRPPRLPRPRPRPSNWPRP: -0.385
RRIRARPPRLPRPRPRPESAPRP: 0.858
RRIRHRPPRLPRPRPRPITIPRP: -0.124

### Prompt For RRIRTRPPRLPRPRPRPRIYPRP , write its shrunken log2 fold change.
### Response -0.304

### Prompt Using the record for RRIRARPPRLPRPRPRPYEIPRP , state its measured shrunken log2 fold change.
### Response -0.059

### Prompt Tell me shrunken log2 fold change reported for RRIRVRPPRLPRPRPRPWLRPRP
### Response -0.171

### Prompt Please report shrunken log2 fold change for the following sequence: RRIRQRPPRLPRPRPRPNNLPRP
### Response -0.401

### Prompt Fill in shrunken log2 fold change for record RRIRRRPPRLPRPRPRPPSRPRP
### Response 0.446

### Prompt Name the recorded shrunken log2 fold change of the sequence listed here: RRIRIRPPRLPRPRPRPKYHPRP
### Response -0.532

---

shrunken log2 fold change reference
System: Escherichia coli TOP10
experiment notes: shrunken log2 fold change of peptide-encoding DNA abundance (4.5 h post-induction vs induction); higher = less antimicrobial activity (less host growth inhibition)
assay setup: time post-induction: 4.5 h; library: site-saturation at positions 5, 18, 19, 20
Give the figure by itself; no unit, no explanation.

Before answering, review these 5 worked examples.
RRIRSRPPRLPRPRPRPEYKPRP: 0.0361
RRIRGRPPRLPRPRPRPVMLPRP: 0.317
RRIRERPPRLPRPRPRPDQAPRP: -0.00195
RRIRFRPPRLPRPRPRPPTYPRP: -0.0496
RRIRPRPPRLPRPRPRPGFKPRP: 0.13

### Prompt Name the value of shrunken log2 fold change reported for RRIRMRPPRLPRPRPRPSMSPRP when tested on Escherichia coli TOP10.
### Response -0.024

### Prompt Under Escherichia coli TOP10, report shrunken log2 fold change for RRIRYRPPRLPRPRPRPPMPPRP
### Response 0.0328

### Prompt Specify the recorded shrunken log2 fold change for RRIRRRPPRLPRPRPRPLYNPRP , system: Escherichia coli TOP10.
### Response -0.295

### Prompt With Escherichia coli TOP10 as the test system, provide measured shrunken log2 fold change for this sequence: RRIRERPPRLPRPRPRPNIHPRP
### Response -0.637

### Prompt Lab note: Escherichia coli TOP10 assay, enter shrunken log2 fold change for RRIRSRPPRLPRPRPRPIKNPRP here
### Response -0.399

### Prompt State shrunken log2 fold change on Escherichia coli TOP10. Entry: RRIRWRPPRLPRPRPRPTPCPRP
### Response 0.212

### Prompt For Escherichia coli TOP10, give the measured shrunken log2 fold change of the entry RRIRCRPPRLPRPRPRPYRRPRP
### Response -0.344

### Prompt Give measured shrunken log2 fold change for RRIRQRPPRLPRPRPRPRYSPRP (Escherichia coli TOP10).
### Response -0.192

### Prompt Report measured shrunken log2 fold change on Escherichia coli TOP10; entry: RRIRCRPPRLPRPRPRPDCSPRP
### Response 0.072

---

Tested on: Escherichia coli TOP10;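 note: peptides expressed intracellularly from a pBAD plasmid library in pooled LB shake-flask culture, induced with 0.3% L-arabinose, DNA abundance read by NGS, three biological replicates, DESeq2 with apeglm shrinkage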
experiment notes: shrunken log2 fold change of peptide-encoding DNA abundance (4.5 h post-induction vs induction); higher = less antimicrobial activity (less host growth inhibition)
assay setup: time post-induction: 4.5 h; library: site-saturation at positions 5, 18, 19, 20
endpoint name: shrunken log2 fold change
Respond using a number only.

Worked cases, answers included:
RRIRVRPPRLPRPRPRPVVSPRP: 0.0132
RRIRERPPRLPRPRPRPPRAPRP: 0.453
RRIRERPPRLPRPRPRPIDKPRP: -0.321
RRIRARPPRLPRPRPRPSPWPRP: 0.348

Let's switch to this sequence now.
### Prompt For the sequence RRIRMRPPRLPRPRPRPMWCPRP , give its measured shrunken log2 fold change value.
### Response 0.283
